Molecular target: T1, mouse PRLR on Baf3-mPRLR cells (mouse, UniProt Q08501 20-608)
T1 sequence (looked up): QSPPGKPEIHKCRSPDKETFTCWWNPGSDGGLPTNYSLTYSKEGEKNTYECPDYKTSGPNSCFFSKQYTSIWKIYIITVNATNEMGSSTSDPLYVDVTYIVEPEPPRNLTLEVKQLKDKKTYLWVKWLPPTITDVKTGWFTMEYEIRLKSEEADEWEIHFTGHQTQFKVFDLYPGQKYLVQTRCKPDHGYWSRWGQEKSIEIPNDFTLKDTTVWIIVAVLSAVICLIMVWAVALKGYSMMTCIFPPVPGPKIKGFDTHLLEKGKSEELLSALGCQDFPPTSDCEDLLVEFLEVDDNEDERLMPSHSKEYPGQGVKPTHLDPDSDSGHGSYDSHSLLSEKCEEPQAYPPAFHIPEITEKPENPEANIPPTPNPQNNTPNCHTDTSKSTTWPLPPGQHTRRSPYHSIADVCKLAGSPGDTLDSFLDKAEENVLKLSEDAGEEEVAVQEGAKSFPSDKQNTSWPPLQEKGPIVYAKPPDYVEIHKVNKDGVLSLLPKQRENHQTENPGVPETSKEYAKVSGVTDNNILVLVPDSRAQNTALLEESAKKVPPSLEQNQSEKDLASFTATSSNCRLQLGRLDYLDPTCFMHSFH
Test: cell-based or functional assay
Can you tell me Baf3-mPRLR proliferation IC50 for the items I'm about to list?

# count of solved cases: 5
Ab51 (antibody, human IgG1, kappa, V domains shown, humanized from Ab8; G1; also called Ab3 HC.1b and Ab3 LC.1a) VH: EVQLVQSGAEVKKPGASVKVSCKASGYTFTDYNIHWVRQAPGQGLEWIGYIYPNNDGTGYAQKLQGRVTMTVDTSTSTAYMELRSLRSDDTAVYYCARGDGNYVGDMDYWGQGTTVTVSS VL: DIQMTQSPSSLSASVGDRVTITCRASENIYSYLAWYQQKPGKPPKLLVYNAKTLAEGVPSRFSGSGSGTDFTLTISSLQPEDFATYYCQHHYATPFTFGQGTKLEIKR    > 30 µg/mL
Ab11 (antibody, V domains shown, murine monoclonal, isotype G1; also called murine Ab11) VH: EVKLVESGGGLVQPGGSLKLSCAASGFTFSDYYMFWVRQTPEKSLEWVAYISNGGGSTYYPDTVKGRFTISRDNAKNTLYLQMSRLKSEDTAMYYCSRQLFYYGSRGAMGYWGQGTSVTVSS VL: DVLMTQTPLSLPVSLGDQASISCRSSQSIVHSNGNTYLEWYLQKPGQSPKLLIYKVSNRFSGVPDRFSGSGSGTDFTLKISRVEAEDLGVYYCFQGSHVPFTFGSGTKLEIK    18.5 µg/mL
chAb5 (antibody, human IgG1, kappa, V domains shown, chimeric, murine variable and human G1/kappa constant regions) VH: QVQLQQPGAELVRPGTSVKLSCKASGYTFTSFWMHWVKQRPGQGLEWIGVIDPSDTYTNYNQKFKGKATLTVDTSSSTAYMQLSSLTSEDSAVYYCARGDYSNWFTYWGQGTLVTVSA VL: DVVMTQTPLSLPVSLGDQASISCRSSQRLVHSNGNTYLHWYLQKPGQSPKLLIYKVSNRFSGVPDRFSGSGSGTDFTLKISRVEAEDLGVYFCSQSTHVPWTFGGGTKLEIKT    2.51 µg/mL
Ab17 (antibody, human IgG1, kappa, V domains shown, humanized from Ab6; G1; also called Ab1 HC.1 and Ab1 LC.2a) VH: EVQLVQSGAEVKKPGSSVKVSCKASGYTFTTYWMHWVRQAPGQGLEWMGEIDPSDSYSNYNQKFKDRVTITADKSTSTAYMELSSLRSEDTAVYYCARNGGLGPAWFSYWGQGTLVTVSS VL: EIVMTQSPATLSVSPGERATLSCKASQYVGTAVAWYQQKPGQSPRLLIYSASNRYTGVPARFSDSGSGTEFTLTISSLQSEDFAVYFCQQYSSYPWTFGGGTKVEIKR    > 30 µg/mL
Ab18 (antibody, human IgG1, kappa, V domains shown, humanized from Ab6; G1; also called Ab1 HC.1a and Ab1 LC.1) VH: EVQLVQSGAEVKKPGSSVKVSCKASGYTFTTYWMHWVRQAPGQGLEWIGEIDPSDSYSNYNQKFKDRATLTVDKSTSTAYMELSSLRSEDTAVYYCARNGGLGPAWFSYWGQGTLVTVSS VL: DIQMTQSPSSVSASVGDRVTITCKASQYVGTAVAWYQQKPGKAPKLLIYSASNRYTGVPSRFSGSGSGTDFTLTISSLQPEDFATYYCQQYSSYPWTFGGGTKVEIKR    > 30 µg/mL

Provide the reported Baf3-mPRLR proliferation IC50 of each entry below, same order.
1. Ab49 (antibody, human IgG1, kappa, V domains shown, humanized from Ab8; G1; also called Ab3 HC.1a and Ab3 LC.1b) VH: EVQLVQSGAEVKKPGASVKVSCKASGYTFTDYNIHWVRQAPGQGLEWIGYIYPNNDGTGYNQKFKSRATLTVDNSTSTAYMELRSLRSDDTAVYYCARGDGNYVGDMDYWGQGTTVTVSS VL: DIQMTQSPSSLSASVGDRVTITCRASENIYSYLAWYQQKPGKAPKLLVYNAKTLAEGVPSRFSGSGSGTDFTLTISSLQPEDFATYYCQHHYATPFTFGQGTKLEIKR
2. Ab6 (antibody, V domains shown, murine monoclonal, isotype G1; also called murine Ab6) VH: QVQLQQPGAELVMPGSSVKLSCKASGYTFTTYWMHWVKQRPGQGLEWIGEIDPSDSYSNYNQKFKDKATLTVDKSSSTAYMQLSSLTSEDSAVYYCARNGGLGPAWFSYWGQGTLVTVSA VL: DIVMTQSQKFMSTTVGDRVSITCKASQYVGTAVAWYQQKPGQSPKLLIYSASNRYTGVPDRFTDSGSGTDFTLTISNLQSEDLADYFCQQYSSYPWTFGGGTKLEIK
3. Ab39 (antibody, human IgG1, kappa, V domains shown, humanized from Ab7; G1; also called Ab4 HC.1a and Ab4 LC.1a) VH: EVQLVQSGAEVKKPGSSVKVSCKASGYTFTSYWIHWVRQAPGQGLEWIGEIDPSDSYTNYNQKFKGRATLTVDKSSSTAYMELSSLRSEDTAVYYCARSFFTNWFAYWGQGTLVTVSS VL: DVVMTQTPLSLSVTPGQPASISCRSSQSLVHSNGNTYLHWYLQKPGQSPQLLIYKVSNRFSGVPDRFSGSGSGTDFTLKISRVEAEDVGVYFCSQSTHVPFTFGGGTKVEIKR

*A*
1: > 30 µg/mL; 2: > 30 µg/mL; 3: > 30 µg/mL

Provide the reported Baf3-mPRLR proliferation IC50 of each entry below, same order.
1. Ab10 (antibody, V domains shown, murine monoclonal, isotype G2a; also called murine Ab10) VH: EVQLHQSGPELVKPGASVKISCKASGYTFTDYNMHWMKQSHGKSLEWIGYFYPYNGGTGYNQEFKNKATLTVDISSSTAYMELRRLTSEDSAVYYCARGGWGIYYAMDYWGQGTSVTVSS VL: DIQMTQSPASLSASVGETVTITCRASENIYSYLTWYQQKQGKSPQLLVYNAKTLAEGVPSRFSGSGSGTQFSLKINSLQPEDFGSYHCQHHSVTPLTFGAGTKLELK
2. Ab9 (antibody, V domains shown, murine monoclonal, isotype G2b; also called murine Ab9) VH: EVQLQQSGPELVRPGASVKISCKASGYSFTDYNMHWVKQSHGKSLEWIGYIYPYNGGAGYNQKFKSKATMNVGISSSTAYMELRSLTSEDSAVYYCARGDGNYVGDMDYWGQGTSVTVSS VL: DIQMTQSPASLSASVGETVTITCRASENIYSYLAWYQQKQGKSPQLLVYNAKTLAEGVPSRFSGSGSGTQFSLKINSLQPEDFGSYYCQHHSGTPFTFGSGTKLEIK

*A*
1. > 30 µg/mL
2. > 30 µg/mL

Origin of the recorded values: patent US20170022281A1
